Reference for the values: patent US12371428B2

Answer each item with its documented IC50.
target: Mer (phospho-Mer, MERTK-transfected 293A cells) (Homo sapiens (Human)); experiment: Mer autophosphorylation ELISA in transient transfected 293A cells (Example H); format: cell-based; conditions: cellular activity; Mer autophosphorylation ELISA in transient transfected 293A cells
Sequence (Q12866 21-999): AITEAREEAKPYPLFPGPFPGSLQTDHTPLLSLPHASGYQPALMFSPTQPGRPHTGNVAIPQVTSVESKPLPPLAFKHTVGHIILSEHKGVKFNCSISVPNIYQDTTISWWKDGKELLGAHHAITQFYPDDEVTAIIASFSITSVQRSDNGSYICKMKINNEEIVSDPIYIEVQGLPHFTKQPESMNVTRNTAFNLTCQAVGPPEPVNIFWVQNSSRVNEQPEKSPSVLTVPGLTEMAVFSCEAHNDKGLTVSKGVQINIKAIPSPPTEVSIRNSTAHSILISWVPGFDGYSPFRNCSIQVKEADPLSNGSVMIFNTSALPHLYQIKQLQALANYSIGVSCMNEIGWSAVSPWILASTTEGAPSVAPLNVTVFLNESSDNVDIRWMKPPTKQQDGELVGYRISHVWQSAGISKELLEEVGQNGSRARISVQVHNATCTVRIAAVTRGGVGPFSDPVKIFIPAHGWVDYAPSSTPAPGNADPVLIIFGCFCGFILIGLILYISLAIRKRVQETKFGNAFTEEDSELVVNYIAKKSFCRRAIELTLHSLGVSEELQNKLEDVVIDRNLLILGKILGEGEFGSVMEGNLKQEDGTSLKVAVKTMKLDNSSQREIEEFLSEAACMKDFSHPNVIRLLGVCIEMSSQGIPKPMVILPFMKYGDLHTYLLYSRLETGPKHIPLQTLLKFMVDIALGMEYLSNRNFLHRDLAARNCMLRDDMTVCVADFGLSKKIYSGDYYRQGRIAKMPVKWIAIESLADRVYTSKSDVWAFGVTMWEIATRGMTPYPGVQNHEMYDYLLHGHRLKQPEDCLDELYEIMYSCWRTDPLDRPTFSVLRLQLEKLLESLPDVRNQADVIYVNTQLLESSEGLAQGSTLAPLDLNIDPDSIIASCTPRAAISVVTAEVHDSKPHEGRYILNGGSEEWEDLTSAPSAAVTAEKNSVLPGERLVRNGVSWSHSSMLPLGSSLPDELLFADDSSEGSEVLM
Structures can show the parent of a compound that is named as a salt.

Known IC50 results, listed for orientation:
Exam item: // lookup IC50 for CCOc1ccn(-c2ccc(F)cc2)c(=O)c1C(=O)Nc1ccc(Oc2ccnc3cc(OC)c(OC)nc23)c(F)c1 [Compound 715]
Marked response: < 100 nM

Exam item: // lookup IC50 for COCCOc1cnc2c(Oc3ccc(NC(=O)c4ccc(C)n(-c5ccc(F)cc5)c4=O)cc3F)ccnc2c1 [Compound 552]
Marked response: < 100 nM

Give IC50 for each of the items listed below.
1. Cc1nc2c(Oc3ccc(NC(=O)c4cnc(C)c(-c5ccc(F)cc5)c4O)cc3)ccnc2cc1-c1cccnc1 [Compound 616, hydrochloride]
2. COc1cc2nccc(Oc3ccc(NC(=O)c4ccc(C)n(-c5ccc(F)cc5C)c4=O)cc3F)c2nc1OC [Compound 219]

Marked response:
1. 100 to 300 nM
2. < 100 nM

* * *

Answer each item with its documented IC50.
molecular target: Human KDR (residues 790-1356) (Homo sapiens (Human), UniProt P35968); experiment: Human KDR kinase assay, HTRF KinEase (Example B-2); assay type: biochemical; settings: protocol of Example B-2
Sequence (P35968 790-1356): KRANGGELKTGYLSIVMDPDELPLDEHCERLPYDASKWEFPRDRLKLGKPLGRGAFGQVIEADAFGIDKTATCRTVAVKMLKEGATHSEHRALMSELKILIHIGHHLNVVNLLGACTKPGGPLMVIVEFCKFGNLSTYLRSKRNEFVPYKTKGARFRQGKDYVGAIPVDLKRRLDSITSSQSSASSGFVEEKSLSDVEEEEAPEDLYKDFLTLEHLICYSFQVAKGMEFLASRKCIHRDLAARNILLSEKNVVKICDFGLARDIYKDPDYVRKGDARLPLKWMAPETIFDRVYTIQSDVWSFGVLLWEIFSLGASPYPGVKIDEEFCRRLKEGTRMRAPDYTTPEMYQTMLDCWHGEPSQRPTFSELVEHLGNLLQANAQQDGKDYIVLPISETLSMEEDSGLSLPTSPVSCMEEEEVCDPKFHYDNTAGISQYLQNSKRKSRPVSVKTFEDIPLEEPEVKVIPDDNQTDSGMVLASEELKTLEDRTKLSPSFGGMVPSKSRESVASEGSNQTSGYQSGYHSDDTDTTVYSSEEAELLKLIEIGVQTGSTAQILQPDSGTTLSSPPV

Exam item: // lookup IC50 for "Cc1ncc(C(=O)Nc2ccc(Oc3ccnc4cnccc34)cc2)c(O)c1-c1ccc(F)cc1"
Marked response: < 100 nM

Give IC50 for each of the items listed below.
1. Cc1cc(F)ccc1-c1c(C)ncc(C(=O)Nc2ccc(Oc3ccnc4cc(C(C)C)cnc34)c(F)c2)c1O
2. COc1cnc2c(Oc3ccc(NC(=O)c4nnc(C)c(-c5ccc(F)cc5)c4OC)cc3)ccnc2c1
3. COc1nc2c(Oc3ccc(NC(=O)c4cnc(C)c(-c5ccc(F)cc5)c4O)cc3F)ccnc2cc1C

Marked response:
1. > 300 nM
2. < 100 nM
3. 100 to 300 nM

* * *

biological target: KDR (phospho-KDR, VEGF165-stimulated HUVEC cells) (Homo sapiens (Human), UniProt P35968); test: KDR autophosphorylation ELISA in HUVEC cells (Example G); format: cell-based; details: cellular activity; KDR autophosphorylation ELISA in HUVEC cells
Sequence (P35968 20-1356): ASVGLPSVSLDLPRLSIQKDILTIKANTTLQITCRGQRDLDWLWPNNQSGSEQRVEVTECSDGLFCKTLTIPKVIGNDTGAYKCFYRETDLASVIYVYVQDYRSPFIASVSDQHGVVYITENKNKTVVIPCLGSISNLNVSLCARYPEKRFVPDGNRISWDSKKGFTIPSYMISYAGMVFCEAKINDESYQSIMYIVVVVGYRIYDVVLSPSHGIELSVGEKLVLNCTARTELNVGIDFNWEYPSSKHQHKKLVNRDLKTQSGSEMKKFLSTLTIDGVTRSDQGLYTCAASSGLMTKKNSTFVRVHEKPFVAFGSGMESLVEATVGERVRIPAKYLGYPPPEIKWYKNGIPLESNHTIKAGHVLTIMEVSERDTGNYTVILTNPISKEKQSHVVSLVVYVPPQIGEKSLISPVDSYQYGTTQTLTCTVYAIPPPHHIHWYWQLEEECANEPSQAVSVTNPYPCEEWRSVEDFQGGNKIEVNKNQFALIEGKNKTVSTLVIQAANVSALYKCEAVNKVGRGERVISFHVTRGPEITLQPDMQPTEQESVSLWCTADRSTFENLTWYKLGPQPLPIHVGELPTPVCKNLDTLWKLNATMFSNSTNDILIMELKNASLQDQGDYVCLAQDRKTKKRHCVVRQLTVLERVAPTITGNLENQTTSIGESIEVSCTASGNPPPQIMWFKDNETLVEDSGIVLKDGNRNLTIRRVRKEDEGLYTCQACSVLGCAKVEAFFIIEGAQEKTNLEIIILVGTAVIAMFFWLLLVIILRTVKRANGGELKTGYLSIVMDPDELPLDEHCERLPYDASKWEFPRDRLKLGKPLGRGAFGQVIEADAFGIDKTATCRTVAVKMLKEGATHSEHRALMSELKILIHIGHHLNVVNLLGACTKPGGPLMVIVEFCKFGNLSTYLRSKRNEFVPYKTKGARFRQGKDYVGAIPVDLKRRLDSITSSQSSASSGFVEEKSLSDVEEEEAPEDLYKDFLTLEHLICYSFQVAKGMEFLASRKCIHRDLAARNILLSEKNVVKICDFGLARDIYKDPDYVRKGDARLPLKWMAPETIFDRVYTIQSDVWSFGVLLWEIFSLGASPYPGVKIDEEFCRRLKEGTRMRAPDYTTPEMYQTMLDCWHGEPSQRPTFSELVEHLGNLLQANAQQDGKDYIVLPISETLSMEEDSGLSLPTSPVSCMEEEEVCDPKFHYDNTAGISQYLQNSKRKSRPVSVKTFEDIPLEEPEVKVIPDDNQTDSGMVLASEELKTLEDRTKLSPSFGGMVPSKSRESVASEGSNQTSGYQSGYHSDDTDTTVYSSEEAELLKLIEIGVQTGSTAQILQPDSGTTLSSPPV
Answer each item with its documented IC50.

Known IC50 results, listed for orientation:
Exam item: // lookup IC50 for COc1cc2nccc(Oc3ccc(NC(=O)c4cc(C(C)=O)c(C)n(-c5ccc(F)cc5C)c4=O)cc3F)c2nc1OC [Compound 720]
Marked response: > 300 nM

Exam item: // lookup IC50 for COc1cc2nccc(Oc3ccc(NC(=O)c4cn(C)c(C#N)c(-c5ccc(F)cc5)c4=O)cc3F)c2nc1OC [Compound 77]
Marked response: > 300 nM

Give IC50 for each of the items listed below.
1. COc1ccc2nccc(Oc3ccc(NC(=O)c4ncc(C)n(-c5ccc(F)cc5)c4=O)cc3F)c2n1 [Compound 264]
2. CCOc1ccn(-c2ccc(F)cc2)c(=O)c1C(=O)Nc1ccc(Oc2ccnc3cc(OC)c(OC)nc23)c(F)c1 [Compound 715]
3. COc1ccc2nccc(Oc3ccc(NC(=O)c4ccc(C)n(-c5ccc(F)cc5C)c4=O)cc3F)c2n1 [Compound 85]
4. COc1cc2nccc(Oc3ccc(NC(=O)c4c(OC)c(C(C)=O)cn(-c5ccc(F)cc5)c4=O)cc3)c2nc1OC [Compound 753]
5. COc1cnc2c(Oc3ccc(NC(=O)c4c(C)c(Cl)c(C)n(-c5ccc(F)cc5)c4=O)cc3F)ccnc2c1 [Compound 309]

Marked response:
1. > 300 nM
2. < 100 nM
3. < 100 nM
4. > 300 nM
5. > 300 nM
